Target of assay: Vascular endothelial growth factor receptor 3 (Homo sapiens)
Sequence (P35916 whole entry): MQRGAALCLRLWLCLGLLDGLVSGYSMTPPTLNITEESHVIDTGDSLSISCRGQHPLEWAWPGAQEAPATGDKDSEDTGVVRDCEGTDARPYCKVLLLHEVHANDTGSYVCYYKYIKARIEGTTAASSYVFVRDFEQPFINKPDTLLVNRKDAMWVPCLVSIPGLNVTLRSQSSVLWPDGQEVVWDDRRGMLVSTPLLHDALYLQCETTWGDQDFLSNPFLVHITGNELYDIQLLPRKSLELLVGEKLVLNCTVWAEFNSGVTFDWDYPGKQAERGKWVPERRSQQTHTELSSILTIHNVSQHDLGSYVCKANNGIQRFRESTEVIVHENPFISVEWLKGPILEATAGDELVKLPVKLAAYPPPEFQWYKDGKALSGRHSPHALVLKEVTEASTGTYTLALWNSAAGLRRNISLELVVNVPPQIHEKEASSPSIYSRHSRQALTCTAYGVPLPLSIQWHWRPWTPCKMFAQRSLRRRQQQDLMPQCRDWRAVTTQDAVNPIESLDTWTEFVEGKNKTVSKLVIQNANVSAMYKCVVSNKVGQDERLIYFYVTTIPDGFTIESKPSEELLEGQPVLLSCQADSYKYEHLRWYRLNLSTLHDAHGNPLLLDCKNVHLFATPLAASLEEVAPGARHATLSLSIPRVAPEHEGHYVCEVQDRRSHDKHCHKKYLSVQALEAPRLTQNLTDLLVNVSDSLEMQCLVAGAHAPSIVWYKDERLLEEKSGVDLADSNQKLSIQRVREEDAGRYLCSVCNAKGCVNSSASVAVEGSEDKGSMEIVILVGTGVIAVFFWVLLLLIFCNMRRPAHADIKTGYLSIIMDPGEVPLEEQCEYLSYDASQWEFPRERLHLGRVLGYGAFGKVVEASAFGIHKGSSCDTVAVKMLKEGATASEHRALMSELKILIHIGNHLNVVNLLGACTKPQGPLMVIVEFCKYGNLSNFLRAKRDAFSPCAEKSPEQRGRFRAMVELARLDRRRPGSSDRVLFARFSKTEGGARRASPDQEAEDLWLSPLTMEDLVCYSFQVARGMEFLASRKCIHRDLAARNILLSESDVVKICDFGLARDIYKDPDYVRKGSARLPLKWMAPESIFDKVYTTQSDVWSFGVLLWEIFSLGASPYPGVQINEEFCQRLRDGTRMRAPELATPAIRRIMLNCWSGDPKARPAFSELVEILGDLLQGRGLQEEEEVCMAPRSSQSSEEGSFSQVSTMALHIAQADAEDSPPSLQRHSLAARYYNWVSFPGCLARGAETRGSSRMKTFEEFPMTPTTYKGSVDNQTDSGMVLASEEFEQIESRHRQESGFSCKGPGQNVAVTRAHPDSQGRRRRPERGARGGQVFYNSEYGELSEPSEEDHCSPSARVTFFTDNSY
Protocol: Inhibition of VEGFR3
pIC50: −log10 of the molar value.
Result type: pIC50

Q: Which pIC50 value is on record for CC(C)(C)c1ccc(-n2ncc3c2-c2ccccc2NC(=O)C3)cc1 ?
Ans: < 5.00

----------
Target of assay: UniProt P54760
Sequence (P54760 whole entry): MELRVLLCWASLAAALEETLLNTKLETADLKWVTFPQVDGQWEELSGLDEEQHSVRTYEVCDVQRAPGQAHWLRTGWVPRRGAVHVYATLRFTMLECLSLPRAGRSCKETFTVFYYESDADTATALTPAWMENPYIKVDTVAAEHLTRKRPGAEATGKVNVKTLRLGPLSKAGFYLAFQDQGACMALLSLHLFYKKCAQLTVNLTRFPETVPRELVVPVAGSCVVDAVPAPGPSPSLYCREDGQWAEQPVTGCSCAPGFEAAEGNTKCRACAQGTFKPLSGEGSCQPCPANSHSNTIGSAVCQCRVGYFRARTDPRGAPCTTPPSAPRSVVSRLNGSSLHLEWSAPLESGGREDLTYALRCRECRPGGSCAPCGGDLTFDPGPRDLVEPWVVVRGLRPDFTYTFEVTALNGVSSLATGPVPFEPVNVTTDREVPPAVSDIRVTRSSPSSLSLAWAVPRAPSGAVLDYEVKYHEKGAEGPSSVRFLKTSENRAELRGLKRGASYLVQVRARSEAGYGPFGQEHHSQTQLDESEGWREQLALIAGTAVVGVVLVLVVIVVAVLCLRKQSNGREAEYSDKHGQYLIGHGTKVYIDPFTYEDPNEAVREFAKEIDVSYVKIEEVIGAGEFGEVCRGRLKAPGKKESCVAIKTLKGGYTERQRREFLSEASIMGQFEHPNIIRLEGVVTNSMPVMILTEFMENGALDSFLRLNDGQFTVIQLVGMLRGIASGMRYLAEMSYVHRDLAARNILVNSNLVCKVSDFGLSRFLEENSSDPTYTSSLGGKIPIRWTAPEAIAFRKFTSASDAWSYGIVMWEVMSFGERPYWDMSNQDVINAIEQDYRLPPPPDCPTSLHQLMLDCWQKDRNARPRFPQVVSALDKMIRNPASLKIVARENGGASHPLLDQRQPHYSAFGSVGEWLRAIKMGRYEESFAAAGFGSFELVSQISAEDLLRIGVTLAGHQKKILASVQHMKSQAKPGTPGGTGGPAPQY
Protocol: Inhibition of EphB4 at 10 uM
Answer each item with its documented inhibition.

Q: Which inhibition value is on record for COc1ccc(-n2ncc3c2-c2ccccc2NC(=O)C3)cc1 ?
Ans: < 40%

Q: Which inhibition value is on record for O=C1Cc2cnn(-c3ccc(F)cc3F)c2-c2ccccc2N1 ?
Ans: < 40%

Q: Which inhibition value is on record for O=C1Cc2cnn(-c3ccc(Cl)cc3)c2-c2ccccc2N1 ?
Ans: < 40%

Q: Which inhibition value is on record for O=C1Cc2cnn(-c3ccccc3)c2-c2ccccc2N1 ?
Ans: < 40%

Q: Which inhibition value is on record for O=C1Cc2cnn(-c3ccccc3Br)c2-c2ccccc2N1 ?
Ans: < 40%

Q: Which inhibition value is on record for Cc1ccccc1-n1ncc2c1-c1ccccc1NC(=O)C2 ?
Ans: < 40%

Q: Which inhibition value is on record for O=C1Cc2cnn(-c3ccc([N+](=O)[O-])cc3)c2-c2ccccc2N1 ?
Ans: < 40%

Q: Which inhibition value is on record for Cc1ccc(-n2ncc3c2-c2ccccc2NC(=O)C3)cc1 ?
Ans: < 40%

Q: Which inhibition value is on record for O=C1Cc2cnn(-c3ccccc3Cl)c2-c2ccccc2N1 ?
Ans: < 40%

Q: Which inhibition value is on record for O=C1Cc2cnn(-c3cc(Cl)cc(Cl)c3)c2-c2ccccc2N1 ?
Ans: < 40%

Q: Which inhibition value is on record for O=C1Cc2cnn(-c3ccc(Br)cc3)c2-c2ccccc2N1 ?
Ans: < 40%

Q: Which inhibition value is on record for O=C1Cc2cnn(-c3ccc(C(F)(F)F)cc3)c2-c2ccccc2N1 ?
Ans: < 40%

Q: Which inhibition value is on record for O=C1Cc2cnn(-c3cccc(Cl)c3)c2-c2ccccc2N1 ?
Ans: < 40%

Q: Which inhibition value is on record for CC(C)(C)c1ccc(-n2ncc3c2-c2ccccc2NC(=O)C3)cc1 ?
Ans: < 40%

Q: Which inhibition value is on record for O=C1Cc2cnn(-c3ccccc3F)c2-c2ccccc2N1 ?
Ans: < 40%

----------
Tested on: NCI-H460
Protocol: Antiproliferative activity against human NCI-H460 cells at 100 uM after 48 hrs relative to control
Assay type: functional
Experimental conditions: NCI-H460, 48 h
Answer each item with its documented growth, % of control at 100 µM.
Give the value in % but do not write % after it.

Q: Which growth, % of control at 100 µM value is on record for CC(C)(C)c1ccc(-n2ncc3c2-c2ccccc2NC(=O)C3)cc1 ?
Ans: 11

Q: Which growth, % of control at 100 µM value is on record for O=C1Cc2cnn(-c3ccccc3Cl)c2-c2ccccc2N1 ?
Ans: 53

Q: Which growth, % of control at 100 µM value is on record for O=C1Cc2cnn(-c3ccc(F)cc3F)c2-c2ccccc2N1 ?
Ans: 41

Q: Which growth, % of control at 100 µM value is on record for O=C1Cc2cnn(-c3ccc(Br)cc3)c2-c2ccccc2N1 ?
Ans: 32

Q: Which growth, % of control at 100 µM value is on record for O=C1Cc2cnn(-c3cccc(Cl)c3)c2-c2ccccc2N1 ?
Ans: 39

Q: Which growth, % of control at 100 µM value is on record for O=C1Cc2cnn(-c3ccc(C(F)(F)F)cc3)c2-c2ccccc2N1 ?
Ans: 28

Q: Which growth, % of control at 100 µM value is on record for COc1ccc(-n2ncc3c2-c2ccccc2NC(=O)C3)cc1 ?
Ans: 26

Q: Which growth, % of control at 100 µM value is on record for O=C1Cc2cnn(-c3ccccc3)c2-c2ccccc2N1 ?
Ans: 33

----------
System: SF-268
Protocol: Antiproliferative activity against human SF268 cells at 100 uM after 48 hrs relative to control
Type: functional
Experimental conditions: SF-268, 48 h
Answer each item with its documented growth, % of control at 100 µM.
Returns: string containing the number followed by the unit.

Q: Which growth, % of control at 100 µM value is on record for O=C1Cc2cnn(-c3ccc(F)cc3F)c2-c2ccccc2N1 ?
Ans: 98%

Q: Which growth, % of control at 100 µM value is on record for O=C1Cc2cnn(-c3cccc(Cl)c3)c2-c2ccccc2N1 ?
Ans: 101%

Q: Which growth, % of control at 100 µM value is on record for O=C1Cc2cnn(-c3ccccc3Cl)c2-c2ccccc2N1 ?
Ans: 71%

Q: Which growth, % of control at 100 µM value is on record for O=C1Cc2cnn(-c3ccc(Br)cc3)c2-c2ccccc2N1 ?
Ans: 98%

Q: Which growth, % of control at 100 µM value is on record for Cc1ccccc1-n1ncc2c1-c1ccccc1NC(=O)C2 ?
Ans: 98%

Q: Which growth, % of control at 100 µM value is on record for O=C1Cc2cnn(-c3ccc(Cl)cc3)c2-c2ccccc2N1 ?
Ans: 80%

----------
Test system: MCF7
Protocol: Antiproliferative activity against human MCF7 cells at 100 uM after 48 hrs relative to control
Assay type: functional
Experimental conditions: MCF7, 48 h
Answer each item with its documented growth, % of control at 100 µM.
Give the value in % but do not write % after it.

Q: Which growth, % of control at 100 µM value is on record for O=C1Cc2cnn(-c3ccc(C(F)(F)F)cc3)c2-c2ccccc2N1 ?
Ans: 52

Q: Which growth, % of control at 100 µM value is on record for CC(C)(C)c1ccc(-n2ncc3c2-c2ccccc2NC(=O)C3)cc1 ?
Ans: 130

Q: Which growth, % of control at 100 µM value is on record for O=C1Cc2cnn(-c3ccc(Br)cc3)c2-c2ccccc2N1 ?
Ans: 51

Q: Which growth, % of control at 100 µM value is on record for O=C1Cc2cnn(-c3ccccc3)c2-c2ccccc2N1 ?
Ans: 55

Q: Which growth, % of control at 100 µM value is on record for O=C1Cc2cnn(-c3ccc(F)cc3F)c2-c2ccccc2N1 ?
Ans: 61

Q: Which growth, % of control at 100 µM value is on record for O=C1Cc2cnn(-c3ccccc3Cl)c2-c2ccccc2N1 ?
Ans: 66

Q: Which growth, % of control at 100 µM value is on record for Cc1ccccc1-n1ncc2c1-c1ccccc1NC(=O)C2 ?
Ans: 64

Q: Which growth, % of control at 100 µM value is on record for O=C1Cc2cnn(-c3ccccc3Br)c2-c2ccccc2N1 ?
Ans: 69

Q: Which growth, % of control at 100 µM value is on record for O=C1Cc2cnn(-c3ccccc3F)c2-c2ccccc2N1 ?
Ans: 66
